Recorded values, source patent US8975398B2.

Tested on: PC3 cells
Assay: NAMPT Cell Proliferation Assay (Cell Titer Glo; also performed in the presence of 0.3 mM nicotinamide mononucleotide)
Assay type: cell-based
Conditions: Homo sapiens, PC-3, 120 h, 5 days incubation, cell viability by Cell Titer Glo
pIC50: −log10 of the molar value.
measurementKind: pIC50

Supply pIC50 measured with PC3 cells for `Cc1ccnnc1N1CC(C(=O)Nc2ccc(C3CCN(C(=O)CC(C)(C)C)CC3)cc2)C1` . 9.46

Supply pIC50 measured with PC3 cells for `Cc1ccnnc1N1CC(C(=O)Nc2ccc(C3CCN(C(=O)c4ccccc4)CC3)cc2)C1` . 9.06

Supply pIC50 measured with PC3 cells for `Cc1ccnnc1N1CC[C@H](C(=O)Nc2ccc(C3CCN(C(=O)C(C)(C)C)CC3)cc2)C1` . 8.47

Supply pIC50 measured with PC3 cells for `O=C(Nc1ccc(CC2CCN(C(=O)C3CCCCC3)CC2)cc1)C1CN(c2cccnn2)C1` . 8.59

(a) O=C(Nc1ccc(C2CCN(C(=O)c3ccccc3)CC2)c(F)c1)C1CN(c2cccnn2)C1
(b) O=C(NCC1CCOCC1)c1ccc(NC(=O)C2CN(c3cccnn3)C2)cc1
(c) O=C(Nc1ccsc1)c1ccc(NC(=O)C2CN(c3cccnn3)C2)cc1
(d) CC(C)CC(=O)N1CCC(c2ccc(NC(=O)C3CN(c4cccnn4)C3)cc2F)CC1
List items by pIC50 in falling order. The response must list the labels following the requested ordering. a, d, b, c

(a) O=C(Nc1ccc(CC2CCN(C(=O)C3CC3)CC2)cc1)C1CN(c2cccnn2)C1
(b) O=C(Nc1cccc(F)c1)c1ccc(NC(=O)C2CN(c3cccnn3)C2)cc1
(c) CSCC(=O)N1CCC(Cc2ccc(NC(=O)C3CN(c4cccnn4)C3)cc2)CC1
(d) O=C(NC1CCCC1)c1ccc(NC(=O)C2CN(c3cccnn3)C2)cc1
List items by pIC50 in falling order. The response must list the labels following the requested ordering. a, c, b, d
(a: 8.52, c: 8.24, b: 7.25, d: 6.23)

(1) CC(C)(C)C(=O)N1CCC(O)(c2ccc(NC(=O)C3CN(c4cccnn4)C3)cc2)CC1
(2) Cc1ccc(N2CC(C(=O)Nc3ccc(-c4cnn(CC(C)(C)C)c4)cc3)C2)nn1
(3) O=C(NCC1CCC1)c1ccc(NC(=O)C2CN(c3cccnn3)C2)cc1
Endpoint returns the given compounds ordered by ascending pIC50. The response must list the labels following the requested ordering. 2, 3, 1
(2: 7.15, 3: 7.91, 1: 8.39)
